- measured.on: Protein cereblon/Estrogen receptor (Homo sapiens, UniProt P03372+Q96SW2)
- Sequence (P03372 whole entry, looked up): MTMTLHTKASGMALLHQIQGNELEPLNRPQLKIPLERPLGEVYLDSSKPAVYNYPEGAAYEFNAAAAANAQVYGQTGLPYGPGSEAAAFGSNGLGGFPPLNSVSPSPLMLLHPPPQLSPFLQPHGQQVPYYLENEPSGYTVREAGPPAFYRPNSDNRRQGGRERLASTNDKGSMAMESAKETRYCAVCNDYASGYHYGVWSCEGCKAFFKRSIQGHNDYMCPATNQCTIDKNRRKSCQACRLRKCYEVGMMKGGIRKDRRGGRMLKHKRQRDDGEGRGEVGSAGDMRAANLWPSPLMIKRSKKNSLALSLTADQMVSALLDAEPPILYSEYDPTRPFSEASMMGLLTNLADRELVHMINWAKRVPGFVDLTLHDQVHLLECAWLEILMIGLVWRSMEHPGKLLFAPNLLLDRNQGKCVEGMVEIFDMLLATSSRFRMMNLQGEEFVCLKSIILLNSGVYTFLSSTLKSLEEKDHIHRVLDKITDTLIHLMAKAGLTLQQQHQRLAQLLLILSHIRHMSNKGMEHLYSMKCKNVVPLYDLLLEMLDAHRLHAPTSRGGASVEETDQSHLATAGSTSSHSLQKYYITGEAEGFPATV
- Sequence (Q96SW2 whole entry, looked up): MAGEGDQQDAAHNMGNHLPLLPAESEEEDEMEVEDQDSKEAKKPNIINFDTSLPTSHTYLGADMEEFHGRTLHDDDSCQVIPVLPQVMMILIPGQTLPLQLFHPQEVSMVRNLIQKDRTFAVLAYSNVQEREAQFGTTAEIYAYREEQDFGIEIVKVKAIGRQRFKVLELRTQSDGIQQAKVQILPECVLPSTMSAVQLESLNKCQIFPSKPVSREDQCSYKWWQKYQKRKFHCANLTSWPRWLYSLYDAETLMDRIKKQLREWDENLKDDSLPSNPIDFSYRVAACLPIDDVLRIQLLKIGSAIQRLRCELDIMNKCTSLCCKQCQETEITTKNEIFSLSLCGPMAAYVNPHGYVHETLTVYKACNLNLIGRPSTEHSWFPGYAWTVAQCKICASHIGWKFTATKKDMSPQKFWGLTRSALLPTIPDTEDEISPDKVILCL
- experiment.summary: Protac activity at human ERalpha in human MCF7 cells assessed as induction of ERalpha degradation by measuring maximum efficacy at 1 uM incubated for 12 hrs by ICW blot assay relative to control
- Format: cell-based
reported.endpoint: Emax (%)

Past entries and their recorded results:
compound	Emax / %
O=C1CCC(N2C(=O)c3cc4c(cc3C2=O)CN(CC(=O)N2CCC3(CC2)CCN(c2ccc([C@@H]5c6ccc(O)cc6CC[C@@H]5c5ccccc5)cc2)CC3)C4)C(=O)N1 (stereo partly specified)	90
C[C@@H]1Cc2c(ccc3[nH]ncc23)[C@@H](c2ccc(N3CCC4(CCN(C(=O)CN5Cc6cc7c(cc6C5)C(=O)N(C5CCC(=O)NC5=O)C7=O)CC4)CC3)cn2)N1CC(F)F (stereo partly specified)	112

[1] C[C@@H]1Cc2c(ccc3[nH]ncc23)[C@@H](c2c(F)cc(N3CCC4(CCN(C(=O)CN5Cc6cc7c(cc6C5)C(=O)N(C5CCC(=O)NC5=O)C7=O)CC4)CC3)cc2F)N1CC(F)F (stereo partly specified)
[2] O=C1CCC(N2C(=O)c3cc4c(cc3C2=O)CN(C(=O)C2CCN(CC3CCN(c5ccc([C@@H]6c7ccc(O)cc7CC[C@@H]6c6ccccc6)cc5)CC3)CC2)C4)C(=O)N1 (stereo partly specified)
Rank 1 against 2 by their Emax values and give the higher one. Select an item and report its label.
1
(1: 91%, 2: 63%)

[a] C[C@@H]1Cc2c(ccc3[nH]ncc23)[C@@H](c2ccc(N3CCC4(CCN(C(=O)CN5Cc6cc7c(cc6C5)C(=O)N(C5CCC(=O)NC5=O)C7=O)CC4)CC3)cn2)N1CC(F)(F)F (stereo partly specified)
[b] O=C1CCC(N2C(=O)c3cc4c(cc3C2=O)CN(CC2CCN(c3ccc([C@@H]5c6ccc(O)cc6CC[C@@H]5c5ccccc5)cc3)CC2)C4)C(=O)N1 (stereo partly specified)
Which numeric Emax is bigger, that of a or that of b ? Write the label of whichever entry you select.
a
